Data credit: patent US20260265273A1

assay: Solubility Test I (stepwise solvent addition); assay type: physicochemical; conditions: organic solvent or mixture, thermodynamic from solid; solvent EtOH; room temperature; undissolved sample completely dissolved at 50° C. ~1 h
attributeMeasured: solubility

> print(dat)
                                   compound  attributemeasured      obsvalue
1  CCOc1cc(-c2ccc(N3CC4CC(C3)N4Cc3ccc(OC)nc3)nc2)c2c3cn[nH]c3nn2c1 (single isomer, unassigned) [Crystal form A]         solubility  < 1900 µg/mL

====

test: Solubility Test I (stepwise solvent addition); assay type: physicochemical; conditions: organic solvent or mixture, thermodynamic from solid; solvent Anisole; room temperature; undissolved sample completely dissolved at 50° C. ~1 h
attributeMeasured: solubility

> print(dat)
                                   compound      obsvalue
1  CCOc1cc(-c2ccc(N3CC4CC(C3)N4Cc3ccc(OC)nc3)nc2)c2c3cn[nH]c3nn2c1 (single isomer, unassigned) [Crystal form A]  < 2200 µg/mL

====

assay: Solubility Test I (stepwise solvent addition); assay type: physicochemical; settings: organic solvent or mixture, thermodynamic from solid; solvent Acetone; room temperature; undissolved sample completely dissolved at 50° C. ~1 h
attributeMeasured: solubility

> print(dat)
                                   compound      obsvalue
1  CCOc1cc(-c2ccc(N3CC4CC(C3)N4Cc3ccc(OC)nc3)nc2)c2c3cn[nH]c3nn2c1 (single isomer, unassigned) [Crystal form A]  < 1900 µg/mL

====

assay: Solubility Test I (stepwise solvent addition); type: physicochemical; settings: organic solvent or mixture, thermodynamic from solid; solvent MeOH; room temperature; undissolved sample completely dissolved at 50° C. ~1 h
attributeMeasured: solubility

> print(dat)
                                   compound  attributemeasured     obsvalue
1  CCOc1cc(-c2ccc(N3CC4CC(C3)N4Cc3ccc(OC)nc3)nc2)c2c3cn[nH]c3nn2c1 (single isomer, unassigned) [Crystal form A]         solubility  < 2.1 mg/mL

====

experiment: Solubility Test I (stepwise solvent addition); assay type: physicochemical; details: organic solvent or mixture, thermodynamic from solid; solvent ACN; room temperature
attributeMeasured: solubility

> print(dat)
                                   compound      obsvalue
1  CCOc1cc(-c2ccc(N3CC4CC(C3)N4Cc3ccc(OC)nc3)nc2)c2c3cn[nH]c3nn2c1 (single isomer, unassigned) [Crystal form A]  < 2200 µg/mL

====

assay: Solubility Test I (stepwise solvent addition); assay type: physicochemical; details: organic solvent or mixture, thermodynamic from solid; solvent IPAC; room temperature
attributeMeasured: solubility

> print(dat)
                                   compound      obsvalue
1  CCOc1cc(-c2ccc(N3CC4CC(C3)N4Cc3ccc(OC)nc3)nc2)c2c3cn[nH]c3nn2c1 (single isomer, unassigned) [Crystal form A]  < 2200 µg/mL

====

Assay: Solubility Test I (stepwise solvent addition)
Assay type: physicochemical
Conditions: organic solvent or mixture, thermodynamic from solid; solvent Toluene; room temperature
Procedure: About 2 mg of the crystal form A sample prepared according to Example 2 was weighed out and added to an HPLC vial, and the corresponding solvent was added stepwise (50/50/200/700 μL in sequence), followed by oscillation until the solid was completely dissolved. […] The solubility range was calculated based on the mass of the solid sample, the volume of the solvent added, and the observed dissolution results, and the results are summarized in Table 3-1.
attributeMeasured: solubility

> print(dat)
                                   compound      obsvalue
1  CCOc1cc(-c2ccc(N3CC4CC(C3)N4Cc3ccc(OC)nc3)nc2)c2c3cn[nH]c3nn2c1 (single isomer, unassigned) [Crystal form A]  < 2000 µg/mL
